Assay: Aqueous solubility of compound at 1 mg
Conditions: aqueous medium
Please go through the items and note down their solubility.

Consider the following illustrative entries.
| compound | solubility |
| --- | --- |
| C=CC(=O)N1CCC(Cn2nc(-c3ccc(Oc4ccccc4)cc3)c3c(N)ncnc32)CC1 | < 10 µg/mL |
| C=CS(=O)(=O)N1CCC(Cn2nc(-c3ccc4c(c3)OCO4)c3c(N)ncnc32)CC1 | 100 µg/mL |
| C=CC(=O)N1CCC[C@@H](n2nc(-c3ccc(Oc4ccccc4)cc3)c3c(N)ncnc32)C1 | < 10 µg/mL |
| C=CS(=O)(=O)N1CCC(Cn2nc(-c3ccc(Oc4ccccc4)cc3)c3c(N)ncnc32)CC1 | < 10 µg/mL |
| C=CC(=O)N1CCC(CCn2cc(-c3ccc4c(c3)OCO4)c3c(N)ncnc32)CC1 | < 100 µg/mL |

Batch lookup, solubility per entry.
1. C=CC(=O)N1CCCC(Cn2cc(-c3ccc4c(c3)OCO4)c3c(N)ncnc32)C1 (single isomer, unassigned; form 2)
2. CN(C)C/C=C/C(=O)N1CCC(Cn2cc(-c3ccc(Oc4ccccc4)cc3)c3c(N)ncnc32)CC1
3. CN(C)C/C=C/C(=O)N1CCC(Cn2cc(-c3ccc4c(c3)OCO4)c3c(N)ncnc32)CC1
4. C=CS(=O)(=O)N1CCC(Cn2cc(-c3ccc(Oc4ccccc4)cc3)c3c(N)ncnc32)CC1

Key:
["100 µg/mL", "< 10 µg/mL", "< 100 µg/mL", "< 10 µg/mL"]

State the recorded solubility for every item in the following list.
1. C=CS(=O)(=O)N1CCC(Cn2cc(-c3ccc4c(c3)OCO4)c3c(N)ncnc32)CC1
2. C=CC(=O)N1CCCC(Cn2cc(-c3ccc4c(c3)OCO4)c3c(N)ncnc32)C1 (single isomer, unassigned; form 1)
3. C=CC(=O)N1CCC(Cn2cc(-c3ccc(Oc4ccccc4)cc3)c3c(N)ncnc32)CC1
4. C=CC(=O)N1CCCC(Cn2cc(-c3ccc(Oc4ccccc4)cc3)c3c(N)ncnc32)C1 (single isomer, unassigned; form 1)

Key:
1: 100 µg/mL; 2: 100 µg/mL; 3: < 10 µg/mL; 4: < 10 µg/mL

---

Target: Tyrosine-protein kinase Fyn (Homo sapiens, UniProt P06241)
Sequence (P06241 whole entry): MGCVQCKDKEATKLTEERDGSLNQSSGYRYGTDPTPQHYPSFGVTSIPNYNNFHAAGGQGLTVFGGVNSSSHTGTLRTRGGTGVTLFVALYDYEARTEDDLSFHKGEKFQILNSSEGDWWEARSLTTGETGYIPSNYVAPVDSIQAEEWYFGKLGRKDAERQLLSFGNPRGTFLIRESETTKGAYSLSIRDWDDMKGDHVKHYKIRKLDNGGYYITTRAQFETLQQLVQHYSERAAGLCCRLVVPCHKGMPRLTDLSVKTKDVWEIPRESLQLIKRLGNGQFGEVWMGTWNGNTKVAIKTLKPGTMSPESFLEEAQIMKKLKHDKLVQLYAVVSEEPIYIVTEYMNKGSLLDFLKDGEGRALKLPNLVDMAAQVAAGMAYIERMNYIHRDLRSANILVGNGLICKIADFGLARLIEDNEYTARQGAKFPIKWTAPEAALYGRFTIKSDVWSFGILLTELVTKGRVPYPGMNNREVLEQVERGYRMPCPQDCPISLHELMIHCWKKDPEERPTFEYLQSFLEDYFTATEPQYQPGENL
Test: Inhibition of recombinant human FYN using biotinyl-beta Abeta-Abeta AYQAEENTYDEYEN as substrate incubate for 60 mins by LANCE assay
measurement.kind: pIC50
Numbers only, as −log10 of the molar value.

Record `C=CC(=O)N1CCC(Cn2cc(-c3ccc4c(c3)OCO4)c3c(N)ncnc32)CC1` , field pIC50: 6.00

---

Biological target: Tyrosine-protein kinase Lck (Homo sapiens)
Sequence (P06239 whole entry): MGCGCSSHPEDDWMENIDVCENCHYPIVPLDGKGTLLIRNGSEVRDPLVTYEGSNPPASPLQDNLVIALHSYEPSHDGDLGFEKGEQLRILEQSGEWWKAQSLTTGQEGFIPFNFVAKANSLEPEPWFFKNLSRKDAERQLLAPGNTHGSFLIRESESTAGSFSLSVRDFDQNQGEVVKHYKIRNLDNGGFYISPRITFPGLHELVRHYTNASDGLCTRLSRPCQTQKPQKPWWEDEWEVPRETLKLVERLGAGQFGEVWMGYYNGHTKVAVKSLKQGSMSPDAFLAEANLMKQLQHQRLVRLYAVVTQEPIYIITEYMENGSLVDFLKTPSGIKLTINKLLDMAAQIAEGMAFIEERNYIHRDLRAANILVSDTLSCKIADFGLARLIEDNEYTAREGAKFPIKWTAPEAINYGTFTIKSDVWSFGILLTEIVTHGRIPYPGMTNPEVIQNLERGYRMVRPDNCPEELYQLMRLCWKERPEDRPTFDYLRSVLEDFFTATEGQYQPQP
Assay: Inhibition of recombinant human LCK using Ulight-Poly GAT[EAY(1:1:1)]n as substrate incubate for 10 mins by LANCE assay
measurement.kind: pIC50
Answers are plain numbers, as −log10 of the molar value.

`C=CC(=O)N1CCC(Cn2cc(-c3ccc4c(c3)OCO4)c3c(N)ncnc32)CC1` has a reported pIC50 of 6.20

---

Experiment: Cmax in Sprague-Dawley rat at 3 mg/kg, iv measured up to 24 hrs by LC-MS/MS analysis
Assay type: ADME, organism-based
Set-up: route intravenous, dose 3 mg/kg, time <=24
Conditions: in vivo
measurement.kind: Cmax (ng/mL)
Give bare numbers, in ng/mL.

response.value for `C=CC(=O)N1CCC(Cn2cc(-c3ccc4c(c3)OCO4)c3c(N)ncnc32)CC1` (field: Cmax) = 3130

---

Test: Cmax in Sprague-Dawley rat at 3 mg/kg, po measured up to 24 hrs by LC-MS/MS analysis
Format: ADME, organism-based
Set-up: route oral, dose 3 mg/kg, time <=24
Details: in vivo
measurement.kind: Cmax (ng/mL)
Answers are plain numbers, in ng/mL.

Input `C=CC(=O)N1CCC(Cn2cc(-c3ccc4c(c3)OCO4)c3c(N)ncnc32)CC1` . Output Cmax: 258

---

Molecular target: Receptor-type tyrosine-protein kinase FLT3 (Homo sapiens, UniProt P36888)
Sequence (P36888 whole entry): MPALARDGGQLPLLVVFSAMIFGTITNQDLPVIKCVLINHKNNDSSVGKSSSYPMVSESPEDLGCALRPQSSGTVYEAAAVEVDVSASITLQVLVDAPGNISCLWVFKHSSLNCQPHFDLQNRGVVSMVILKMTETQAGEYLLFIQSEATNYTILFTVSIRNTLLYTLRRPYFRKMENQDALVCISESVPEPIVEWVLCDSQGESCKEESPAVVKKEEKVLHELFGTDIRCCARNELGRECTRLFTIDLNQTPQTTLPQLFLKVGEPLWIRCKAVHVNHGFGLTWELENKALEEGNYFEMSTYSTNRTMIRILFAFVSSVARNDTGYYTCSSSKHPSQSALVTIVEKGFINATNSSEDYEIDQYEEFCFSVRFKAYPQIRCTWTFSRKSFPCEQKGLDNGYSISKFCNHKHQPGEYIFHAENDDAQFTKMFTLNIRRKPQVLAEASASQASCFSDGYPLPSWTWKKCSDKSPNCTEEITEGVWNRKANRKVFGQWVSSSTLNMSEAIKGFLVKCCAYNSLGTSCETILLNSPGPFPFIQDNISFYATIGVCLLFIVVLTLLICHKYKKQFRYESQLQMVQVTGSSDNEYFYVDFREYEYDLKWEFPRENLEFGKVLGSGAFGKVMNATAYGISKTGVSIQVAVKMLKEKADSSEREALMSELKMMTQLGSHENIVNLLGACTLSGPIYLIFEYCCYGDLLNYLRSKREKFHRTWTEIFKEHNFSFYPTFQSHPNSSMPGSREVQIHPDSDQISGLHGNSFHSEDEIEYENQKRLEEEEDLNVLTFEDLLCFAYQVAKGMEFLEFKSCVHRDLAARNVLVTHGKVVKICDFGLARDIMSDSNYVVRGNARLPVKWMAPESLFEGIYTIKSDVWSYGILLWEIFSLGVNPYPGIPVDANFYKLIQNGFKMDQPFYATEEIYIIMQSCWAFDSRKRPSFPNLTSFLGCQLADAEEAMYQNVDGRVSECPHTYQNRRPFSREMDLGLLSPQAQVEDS
measurement.kind: IC50

# compound `C=CC(=O)N1CCC(Cn2cc(-c3ccc4c(c3)OCO4)c3c(N)ncnc32)CC1` ; its IC50 = > 10 µM

---

Target: Dual specificity mitogen-activated protein kinase kinase 4 (Homo sapiens)
Sequence (P45985 whole entry): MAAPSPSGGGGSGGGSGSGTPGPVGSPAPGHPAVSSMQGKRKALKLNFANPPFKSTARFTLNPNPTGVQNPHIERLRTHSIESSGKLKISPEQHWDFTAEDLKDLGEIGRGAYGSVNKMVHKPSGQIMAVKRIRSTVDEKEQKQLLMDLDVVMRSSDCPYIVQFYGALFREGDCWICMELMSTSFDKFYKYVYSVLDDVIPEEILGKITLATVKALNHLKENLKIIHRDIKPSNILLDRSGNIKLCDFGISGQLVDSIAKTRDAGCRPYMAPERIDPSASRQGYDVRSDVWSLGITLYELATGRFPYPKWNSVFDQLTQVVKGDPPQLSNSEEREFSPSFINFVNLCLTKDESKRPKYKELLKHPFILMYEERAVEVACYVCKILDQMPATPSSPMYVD
Experiment: Inhibition of MKK4 (unknown origin)
measurement.kind: IC50

Record `C=CC(=O)N1CCC(Cn2cc(-c3ccc4c(c3)OCO4)c3c(N)ncnc32)CC1` , field IC50: > 10 µM

---

Biological target: Mitogen-activated protein kinase kinase kinase 2 (Homo sapiens)
Sequence (Q9Y2U5 whole entry): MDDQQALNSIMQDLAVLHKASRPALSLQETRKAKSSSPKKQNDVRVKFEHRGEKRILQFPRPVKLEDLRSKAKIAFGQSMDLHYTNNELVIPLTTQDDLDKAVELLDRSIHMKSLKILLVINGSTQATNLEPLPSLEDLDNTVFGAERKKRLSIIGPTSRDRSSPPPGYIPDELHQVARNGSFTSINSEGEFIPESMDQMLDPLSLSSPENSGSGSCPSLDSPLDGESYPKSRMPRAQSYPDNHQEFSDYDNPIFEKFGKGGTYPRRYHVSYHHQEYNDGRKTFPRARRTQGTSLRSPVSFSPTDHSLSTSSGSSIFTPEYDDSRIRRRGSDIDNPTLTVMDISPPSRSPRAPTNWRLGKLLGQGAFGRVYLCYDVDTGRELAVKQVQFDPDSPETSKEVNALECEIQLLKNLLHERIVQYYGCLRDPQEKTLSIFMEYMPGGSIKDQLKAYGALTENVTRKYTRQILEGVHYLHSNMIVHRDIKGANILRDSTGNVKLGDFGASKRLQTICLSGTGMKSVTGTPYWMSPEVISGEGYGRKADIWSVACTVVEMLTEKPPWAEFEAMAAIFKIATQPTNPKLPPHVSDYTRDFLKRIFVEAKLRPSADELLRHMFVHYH
Test: Inhibition of MEKK2 (unknown origin)
measurement.kind: IC50

`C=CC(=O)N1CCC(Cn2cc(-c3ccc4c(c3)OCO4)c3c(N)ncnc32)CC1` has a reported IC50 of > 10 µM

---

Biological target: Macrophage colony-stimulating factor 1 receptor (Homo sapiens, UniProt P07333)
Sequence (P07333 whole entry): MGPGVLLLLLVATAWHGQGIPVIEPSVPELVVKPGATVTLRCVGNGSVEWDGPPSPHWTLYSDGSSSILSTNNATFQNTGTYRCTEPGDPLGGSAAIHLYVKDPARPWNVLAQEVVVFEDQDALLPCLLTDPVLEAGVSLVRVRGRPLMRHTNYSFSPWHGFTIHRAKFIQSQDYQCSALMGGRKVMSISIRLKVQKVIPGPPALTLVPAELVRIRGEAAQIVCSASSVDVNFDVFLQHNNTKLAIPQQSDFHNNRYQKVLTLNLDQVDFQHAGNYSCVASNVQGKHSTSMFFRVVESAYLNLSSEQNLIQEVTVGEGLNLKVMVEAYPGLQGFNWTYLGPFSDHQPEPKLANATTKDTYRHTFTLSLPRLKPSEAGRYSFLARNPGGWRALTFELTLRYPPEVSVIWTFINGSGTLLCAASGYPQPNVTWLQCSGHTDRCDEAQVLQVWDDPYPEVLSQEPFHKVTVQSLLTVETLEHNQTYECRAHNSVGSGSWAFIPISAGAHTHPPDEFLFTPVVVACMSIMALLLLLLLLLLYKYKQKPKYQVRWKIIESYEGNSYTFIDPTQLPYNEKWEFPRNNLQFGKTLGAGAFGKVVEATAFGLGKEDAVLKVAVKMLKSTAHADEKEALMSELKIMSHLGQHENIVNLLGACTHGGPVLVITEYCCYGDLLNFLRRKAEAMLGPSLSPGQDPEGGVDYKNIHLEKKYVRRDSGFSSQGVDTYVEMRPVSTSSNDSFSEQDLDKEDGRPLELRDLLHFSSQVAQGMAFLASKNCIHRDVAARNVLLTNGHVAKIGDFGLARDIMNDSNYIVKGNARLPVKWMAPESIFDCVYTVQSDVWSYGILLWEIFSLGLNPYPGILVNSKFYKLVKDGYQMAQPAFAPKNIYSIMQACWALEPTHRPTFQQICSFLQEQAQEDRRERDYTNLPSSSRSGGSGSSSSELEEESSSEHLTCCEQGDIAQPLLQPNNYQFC
Assay: Inhibition of recombinant human FMS using Ulight-TK peptide as substrate incubate for 15 mins by LANCE assay
measurement.kind: IC50

# IC50 of `C=CC(=O)N1CCC(Cn2cc(-c3ccc4c(c3)OCO4)c3c(N)ncnc32)CC1` = > 10 µM

---

Test: Metabolic stability in human liver microsomes assessed as half life at 100 uM/L measured upto 90 mins by LC-MS/MS analysis
Assay type: ADME, Microsome
Details: dose 100 µM/Kg
measurement.kind: half-life at 100 µM (h)
One number for each entry, in h.

Just so you know, measured half-life at 100 µM for `C=CC(=O)N1CCC(Cn2cc(-c3ccc4c(c3)OCO4)c3c(N)ncnc32)CC1` came out at 5.5

---

Biological target: Dual specificity mitogen-activated protein kinase kinase 1 (Homo sapiens, UniProt Q02750)
Sequence (Q02750 whole entry): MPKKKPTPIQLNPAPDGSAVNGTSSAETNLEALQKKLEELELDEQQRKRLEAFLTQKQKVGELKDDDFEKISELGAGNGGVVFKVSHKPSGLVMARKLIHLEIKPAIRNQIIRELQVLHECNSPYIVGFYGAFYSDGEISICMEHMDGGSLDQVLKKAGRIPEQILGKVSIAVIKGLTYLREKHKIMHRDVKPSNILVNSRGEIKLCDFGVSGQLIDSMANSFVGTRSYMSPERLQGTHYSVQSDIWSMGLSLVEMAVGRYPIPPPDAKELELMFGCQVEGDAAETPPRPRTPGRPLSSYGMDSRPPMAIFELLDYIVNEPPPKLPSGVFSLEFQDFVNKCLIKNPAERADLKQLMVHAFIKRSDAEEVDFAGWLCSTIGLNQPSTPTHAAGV
Assay: Inhibition of recombinant human MEK1 using inactivated ERK2 as substrate incubate for 60 mins by LANCE assay
pIC50: −log10 of the molar value.
measurement.kind: pIC50

Measured pIC50, `C=CC(=O)N1CCC(Cn2cc(-c3ccc4c(c3)OCO4)c3c(N)ncnc32)CC1` : < 5.00

---

Assay: Metabolic stability in rat liver microsomes assessed as half life at 100 uM/L measured upto 90 mins by LC-MS/MS analysis
Format: ADME, Microsome
measurement.kind: half-life at 100 µM (h)
Numbers only, in h.

Field half-life at 100 µM (entry `C=CC(=O)N1CCC(Cn2cc(-c3ccc4c(c3)OCO4)c3c(N)ncnc32)CC1` ) reads 3.12
